Molecular target: Adrenergic β2 (Homo sapiens)
Construct: Adherent H292 cells were removed from tissue culture flasks; endogenous in cells; host or cells: H292 cells
Test: Adrenergic β2 mediated cAMP production in H292 cells (AlphaScreen cAMP detection)
Assay type: cell-based
Parameters: key: fraction of formoterol maximum activity (formoterol = 1)
Details: Intrinsic Activity as a fraction relative to the maximum activity determined for formoterol
Experimental: Adrenergic β2 Mediated cAMP Production H292 cells were grown in 225 cm2 flasks incubator at 37° C., 5% CO2 in RPMI medium containing, 10% (v/v) FBS (foetal bovine serum) and 2 mM L-glutamine. […] The concentration of cAMP (cyclic adenosine monophosphate) in the cell lysate was determined using AlphaScreen™ methodology. […] Intrinsic Activity was expressed as a fraction relative to the maximum activity determined for formoterol in each experiment.
Structures can show the parent of a compound that is named as a salt.
measurement kind: β2 Int Act
Write the value as a bare number.

In the examples that follow, each entry is paired with its recorded β2 Int Act.
O=C1COc2c(CCNCCN(C(=O)CCOCCc3cccc(F)c3)C3CCCCC3)ccc(O)c2N1 [Example 74, trifluoroacetate] : 0.97
O=C(CCNCCc1ccc(Cl)cc1)N(CCNCCc1ccc(O)c2[nH]c(=O)ccc12)C1CCCCCC1 [Example 4, bis(trifluoroacetate)] : 0.79
CC(C)[C@@H](C)N(CCNCCc1ccc(O)c2c1OCC(=O)N2)C(=O)CCNCCc1ccc(Cl)c(Cl)c1 [Example 59, dihydrochloride] : 0.87

Query string: Consider the compound O=C1COc2c(CCNCCN(C(=O)CCNCCc3ccccc3)C3CCCCC3)ccc(O)c2N1 [Example 23, bis(trifluoroacetate)] and give its measured β2 Int Act.
Result string: 0.79

Query string: Now try CCCCC[C@@H](C)N(CCNCCc1ccc(O)c2c1OCC(=O)N2)C(=O)CCNCCc1ccccc1 [Example 60, bis(trifluoroacetate)] .
Result string: 0.92

Query string: Field entry: Cc1ccc(F)c(CCNCCC(=O)N(CCNCCc2ccc(O)c3c2OCC(=O)N3)C2CCCCC2)c1 [Example 33, bis(trifluoroacetate)]
Result string: 0.9

====

Reported β2 Int Act values are given for each entry in this list.
biological target: Adrenergic β2 (Homo sapiens, UniProt P07550); construct: Adherent H292 cells were removed from tissue culture flasks; endogenous in cells; host or cells: H292 cells; assay: Adrenergic β2 mediated cAMP production in H292 cells (AlphaScreen cAMP detection); assay type: cell-based; design: key: fraction of formoterol maximum activity (formoterol = 1); settings: Intrinsic Activity as a fraction relative to the maximum activity determined for formoterol
Sequence (P07550 whole entry): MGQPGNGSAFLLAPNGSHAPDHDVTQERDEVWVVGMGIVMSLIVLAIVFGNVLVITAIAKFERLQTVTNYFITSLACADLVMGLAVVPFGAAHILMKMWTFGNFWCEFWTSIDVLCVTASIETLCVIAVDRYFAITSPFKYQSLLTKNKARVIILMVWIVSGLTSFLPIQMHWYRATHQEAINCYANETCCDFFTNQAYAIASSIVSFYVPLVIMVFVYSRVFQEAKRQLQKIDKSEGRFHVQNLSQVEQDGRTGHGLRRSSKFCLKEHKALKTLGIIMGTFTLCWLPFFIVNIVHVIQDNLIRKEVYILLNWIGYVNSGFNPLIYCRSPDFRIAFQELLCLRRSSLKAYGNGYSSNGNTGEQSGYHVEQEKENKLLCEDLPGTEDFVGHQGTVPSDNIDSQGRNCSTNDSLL
Structures can show the parent of a compound that is named as a salt.
// response body must contain only the number

Consider the reported β2 Int Act for these compounds:
CCCC[C@@H](C)N(CCNCCc1ccc(O)c2c1OCC(=O)N2)C(=O)CCNCCc1ccc(F)c(Cl)c1 [Example 48, bis(trifluoroacetate)] : 0.91
CC[C@@H](C)N(CCNCCc1ccc(O)c2[nH]c(=O)ccc12)C(=O)CCOCCc1ccccc1.Cl [Example 79] : 0.92

Query string: Given the entry O=C1Cc2c(CCNCCN(C(=O)CCNCCc3cccc(F)c3)C3CCCCC3)ccc(O)c2N1 [Example 20, dihydrobromide] , what β2 Int Act was observed with Adrenergic β2 (Homo sapiens, UniProt P07550)?
Result string: 0.78

Query string: What about O=C1COc2c(CCNCCN(C(=O)CCNCCc3cccc(F)c3F)C3CCCCC3)ccc(O)c2N1 [Example 36, bis(trifluoroacetate)] ?
Result string: 0.91

====

molecular target: Adrenergic β2 (Homo sapiens); construct: Adherent H292 cells were removed from tissue culture flasks; endogenous in cells; host or cells: H292 cells; assay: Adrenergic β2 mediated cAMP production in H292 cells (AlphaScreen cAMP detection); assay type: cell-based; parameters: key: fraction of formoterol maximum activity (formoterol = 1); conditions: Intrinsic Activity as a fraction relative to the maximum activity determined for formoterol
β2 Int Act reference
Enter a number only.

Look over these answered cases.
O=C(CCNCCc1cccc(F)c1)N(CCNCCc1ccc(O)c2[nH]c(=O)ccc12)C1CCCCCC1 [Example 5, bis(trifluoroacetate)] : 0.82
CCCC[C@@H](C)N(CCNCCc1ccc(O)c2c1OCC(=O)N2)C(=O)CCNCCc1ccc(Cl)c(Cl)c1 [Example 55, bis(trifluoroacetate)] : 0.92
CCCC[C@@H](C)N(CCNCCc1ccc(O)c2c1OCC(=O)N2)C(=O)CCNCCc1ccc(Cl)cc1 [Example 45, bis(trifluoroacetate)] : 0.89
CCOc1cccc(CCNCCC(=O)N(CCNCCc2ccc(O)c3[nH]c(=O)ccc23)C2CCCCCC2)c1 [Example 11, bis(trifluoroacetate)] : 0.65
O=C1COc2c(CCNCCN(C(=O)CCNCCc3cccc(Cl)c3F)C3CCCCC3)ccc(O)c2N1 [Example 39, bis(trifluoroacetate)] : 0.98

# input for lookup
Query string: Give the reported β2 Int Act for O=C1COc2c(CCNCCN(C(=O)CCNCCc3cc(F)cc(Cl)c3)C3CCCCCC3)ccc(O)c2N1 [Example 66, bis(trifluoroacetate)] (system: Adrenergic β2 (Homo sapiens)).
Result string: 0.99

====

molecular target: Adrenergic β2 (Homo sapiens, UniProt P07550); construct: Adherent H292 cells were removed from tissue culture flasks; endogenous in cells; host or cells: H292 cells; assay: Adrenergic β2 mediated cAMP production in H292 cells (AlphaScreen cAMP detection); assay type: cell-based; design: key: fraction of formoterol maximum activity (formoterol = 1); conditions: Intrinsic Activity as a fraction relative to the maximum activity determined for formoterol
Counter-ions that a name gives are not always drawn.
measurement kind: β2 Int Act
Field format: numeric only.

Query string: What value of β2 Int Act on Adrenergic β2 (Homo sapiens, UniProt P07550) does O=C(CCNCCc1cc(F)cc(F)c1)N(CCNCCc1ccc(O)c2[nH]c(=O)ccc12)C1CCCCCC1 [Example 10, bis(trifluoroacetate)] have?
Result string: 0.85

Query string: Here is the next compound: Cl.O=C(CCOCCc1ccccc1F)N(CCNCCc1ccc(O)c2[nH]c(=O)ccc12)C1CCCCC1
Result string: 0.94

Query string: O=C1COc2c(CCNCCN(C(=O)CCOCCc3ccc(F)cc3)C3CCCCC3)ccc(O)c2N1 [Example 75, trifluoroacetate] ?
Result string: 0.96

Query string: Would you mind doing O=C1COc2c(CCNCCN(C(=O)CCNCCc3cc(F)ccc3F)C3CCCCC3)ccc(O)c2N1 [Example 38, bis(trifluoroacetate)] as well?
Result string: 0.98

Query string: Subsequent entry: CCCC[C@@H](C)N(CCNCCc1ccc(O)c2c1OCC(=O)N2)C(=O)CCNCCc1cc(F)cc(F)c1 [Example 51, bis(trifluoroacetate)]
Result string: 0.94

Query string: Same question for Cc1cc(CCNCCC(=O)N(CCNCCc2ccc(O)c3c2OCC(=O)N3)C2CCCCC2)ccc1F [Example 40, bis(trifluoroacetate)] please.
Result string: 0.96

====

Here, each record is paired with measured β2 Int Act data.
target: Adrenergic β2 (Homo sapiens, UniProt P07550); construct: Adherent H292 cells were removed from tissue culture flasks; endogenous in cells; host or cells: H292 cells; experiment: Adrenergic β2 mediated cAMP production in H292 cells (AlphaScreen cAMP detection); assay type: cell-based; parameters: key: fraction of formoterol maximum activity (formoterol = 1); conditions: Intrinsic Activity as a fraction relative to the maximum activity determined for formoterol
Counter-ions that a name gives are not always drawn.
I'd appreciate a reply containing only the number, no unit.

O=C(CCNCCc1cc(F)cc(F)c1)N(CCNCCc1ccc(O)c2[nH]c(=O)ccc12)C1CCCCC1 [Example 15, bis(trifluoroacetate)] : 0.88
O=C(CCNCCc1cccc(F)c1F)N(CCNCCc1ccc(O)c2[nH]c(=O)ccc12)C1CCCCC1 [Example 18, bis(trifluoroacetate)] : 0.95
O=C1COc2c(CCNCCN(C(=O)CCOCCc3cccc(Cl)c3)C3CCCCC3)ccc(O)c2N1 [Example 77, trifluoroacetate] : 0.97
CCCCN(CCNCCc1ccc(O)c2[nH]c(=O)ccc12)C(=O)CCOCCc1ccccc1 [Example 1, hydrochloride] : 0.9
O=C(CCNCCc1cccc(-c2ccccc2)c1)N(CCNCCc1ccc(O)c2[nH]c(=O)ccc12)C1CCCCCC1 [Example 12, bis(trifluoroacetate)] : 0.67

Query string: Give the reported β2 Int Act for O=C(CCOCCc1ccccc1)N(CCNCCc1ccc(O)c2[nH]c(=O)ccc12)C1CCCCC1 (system: Adrenergic β2 (Homo sapiens, UniProt P07550)).
Result string: 0.93

Query string: Input CCCC[C@@H](C)N(CCNCCc1ccc(O)c2c1OCC(=O)N2)C(=O)CCNCCc1cccc(Cl)c1 [Example 44, bis(trifluoroacetate)]
Result string: 0.89

Query string: Now consider O=C1COc2c(CCNCCN(C(=O)CCNCCc3ccc(F)c(F)c3)C3CCCCC3)ccc(O)c2N1 [Example 42, bis(trifluoroacetate)] and answer again.
Result string: 0.9

====

Listed here: items and their measured β2 Int Act.
biological target: Adrenergic β2 (Homo sapiens, UniProt P07550); construct: Adherent H292 cells were removed from tissue culture flasks; endogenous in cells; host or cells: H292 cells; assay: Adrenergic β2 mediated cAMP production in H292 cells (AlphaScreen cAMP detection); type: cell-based; parameters: key: fraction of formoterol maximum activity (formoterol = 1); conditions: Intrinsic Activity as a fraction relative to the maximum activity determined for formoterol
Give a plain numeric answer without units written out.

The examples below pair each entry with its known result.
Cc1cccc(CCNCCC(=O)N(CCNCCc2ccc(O)c3[nH]c(=O)ccc23)C2CCCCCC2)c1 [Example 8, bis(trifluoroacetate)] : 0.79
O=C(CCNCCc1cccc(Cl)c1)N(CCNCCc1ccc(O)c2[nH]c(=O)ccc12)C1CCCCC1 [Example 13, bis(trifluoroacetate)] : 0.86
O=C1COc2c(CCNCCN(C(=O)CCNCCc3ccccc3Cl)C3CCCCC3)ccc(O)c2N1 [Example 28, bis(trifluoroacetate)] : 0.86
CCCC[C@@H](C)N(CCNCCc1ccc(O)c2c1OCC(=O)N2)C(=O)CCNCCc1cccc(F)c1F [Example 53, bis(trifluoroacetate)] : 0.99
O=C1COc2c(CCNCCN(C(=O)CCNCCc3ccccc3)C3CCCCCC3)ccc(O)c2N1 [Example 24, bis(trifluoroacetate)] : 0.85

Turning now to a further compound:
Query string: GET /values?readout=β2 Int Act&item= CCCC[C@@H](C)N(CCNCCc1ccc(O)c2c1OCC(=O)N2)C(=O)CCNCCc1ccc(F)c(C)c1 [Example 47, bis(trifluoroacetate)]
Result string: 0.89
